Experiment: H69AR cell proliferation blockers – human, duplicate replicates, primary screen (AID 580)
Conditions: H69AR lung tumor cells viability, ATP luminescence, 72 h; at 10 µM
Activity calls are given as the source filed them.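 The calls were made as follows: active = viability at or under a set limit in both replicates, limit being median viability minus 3 SD (cut at about 48% in these data, passing the limit was not always enough); inconclusive = at or under the limit in just one replicate; inactive = at or above the limit in both replicates.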
Outcome (select one): active, inactive

1. CCOCCOc1nc2c(c(=O)n(C)c(=O)n2C)n1Cc1ccc(C)cc1
inactive
2. CN1CCN(Cc2nc3c(c(=O)[nH]c(=O)n3C)n2CCc2ccccc2)CC1
inactive

**Q:** Dear all, I need the recorded test outcome for COC(=O)CN1C(=O)CC(C)(C)S(=O)c2ccccc21 (centres undefined) , thank you.
**A:** inactive

**Q:** I would be grateful if you could indicate the recorded call for "CCOc1ccc(NC(=O)CSc2nccn2C)cc1" .
**A:** inactive

**Q:** Give the logged outcome of this assay for the following molecule: CCSc1nnc(N2C(=O)CC(c3ccsc3)C3=C2CC(C)(C)CC3=O)s1 (centres undefined)
**A:** inactive

**Q:** Which outcome did this test record for the molecule "CC(C)Cc1nnc(NS(=O)(=O)c2ccc(Cl)cc2)s1" ?
**A:** inactive

**Q:** Test call, this molecule: "COc1ccc(-n2ncc3c(N4CCN(c5cccc(C)c5C)CC4)ncnc32)cc1"
**A:** active

**Q:** Per the records of this test, what outcome belongs to "CC(=O)Nc1cccc(Oc2nc(C)cc(C)c2C#N)c1" ?
**A:** inactive

**Q:** Hi, do you know how "O=C(Cc1cccs1)Nc1ccccc1NC(=O)Cc1cccs1" came out in this test?
**A:** inactive

**Q:** For "c1ccc(-c2cn3cccnc3n2)cc1" , which call appears in the assay record?
**A:** inactive
